# PROTOCOL DETAILS: Induction of nuclear translocation of human GFP-tagged NFATc1 expressed in virus infected primary human skeletal muscle myoblasts after 3 hrs by DAPI staining based assay
Doc: threshold 5 µM (exclusive). Items with EC50 beneath it return fulfilled; others return not fulfilled.

Completed entries (count: 4):
compound_structure=Fc1cc(-c2c[nH]c3cnccc23)ccn1 assigned_label=fulfilled
compound_structure=CC(C)n1cc(-c2ccncc2)c2ccncc21 assigned_label=fulfilled
compound_structure=Nc1nccc(-c2c[nH]c3cnccc23)n1 assigned_label=fulfilled
compound_structure=c1cc(-c2cn(CCC3CC3)c3cnccc23)ccn1 assigned_label=fulfilled

Prompt: In the record for `Cn1cc(-c2ccncc2)c2ccncc21` , is EC50 less than 5 µM?
Response: fulfilled

###

# PROTOCOL DETAILS: Induction of nuclear translocation of human GFP-tagged NFATc1 expressed in virus infected primary human skeletal muscle myoblasts after 3 hrs by DAPI staining based assay
Doc: threshold 20 µM (exclusive). Items with EC50 beneath it return y; others return n.

Completed entries (count: 3):
compound_structure=Clc1cnccc1-c1c[nH]c2cnccc12 assigned_label=y
compound_structure=Cc1cc(-c2c[nH]c3cnccc23)ccn1 assigned_label=n
compound_structure=COc1cccc2c(-c3ccnc(N)n3)c[nH]c12 assigned_label=y

Prompt: In the record for `c1cc(-c2c[nH]c3cnccc23)ccn1` , is EC50 less than 20 µM?
Response: y

Prompt: In the record for `Fc1ccc(Cn2cc(-c3ccncc3)c3ccncc32)cc1` , is EC50 less than 20 µM?
Response: y

Prompt: In the record for `c1ccc2c(-c3c[nH]c4cnccc34)ccnc2c1` , is EC50 less than 20 µM?
Response: n

###

# PROTOCOL DETAILS: Induction of nuclear translocation of human GFP-tagged NFATc1 expressed in virus infected primary human skeletal muscle myoblasts after 3 hrs by DAPI staining based assay
Some compounds, each annotated with its measured pEC50.
When answering, recall that pEC50 equals minus log10 of the concentration in mol/L, and write that number alone.

compound_structure=COCCn1cc(-c2ccncc2)c2ccncc21 observed=5.16
compound_structure=c1cc(-c2cn(CCCN3CCOCC3)c3cnccc23)ccn1 observed=5.16

Field: next compound
Prompt: Specify pEC50 for `N#Cc1cccc2c(-c3ccnc(N)n3)c[nH]c12` and stop.
Response: 4.66
